assayOverview: qHTS of pediatric cancer cell lines to identify multiple opportunities for drug repurposing: Primary screen for BT-12 cells (AID 1347101); further: nearly all actives have a fitted effect of over 25% in size; further: potency means the concentration at half of the fitted maximal effect
conditionDescription: BT-12 viability, CellTiter-Glo luminescence, 48 h; series mostly up to 57.3 µM
Experimental: Drug repurposing or repositioning has been offered as a strategy for drug development in oncology programs. […] [1] Shen, M et al. Quantitative high-throughput phenotypic screening of pediatric cancer cell lines identifies multiple opportunities for drug repurposing. […] Cells were assayed in growth media at a density of 500-1,000 cells/well. […] After a 15 min incubation at room temperature, samples were analyzed for luminescence intensity using a ViewLux High-throughput CCD imager equipped with clear filters.
Inconclusive results are not listed. Activity calls are given as the source filed them. The call rests on the fitted dose curve; in most records, active means well fitted cell-killing curve with a large enough effect; inconclusive means small, poorly fitted or top-dose-only effect; inactive means flat fitted curve, though single readings scatter.
assayMetric: Potency

Example entries begin here.
c1ccc2c(c1)sc1ccccc12 ... inactive
CC(NC(C)(C)C)C(=O)c1cccc(Cl)c1 (stereo not drawn) ... inactive
COc1cccc(C(=O)CCN[C@@H](C)[C@H](O)c2ccccc2)c1 ... inactive
CCN[C@H](C)Cc1cccc(C(F)(F)F)c1 ... inactive
CC(=O)OCC1=C(C(=O)O)N2C(=O)[C@@H](N)[C@H]2SC1 ... inactive

Give one value of Potency per listed molecule.
1. CN1CCC(O)(c2ccc(F)cc2)C(C(=O)c2ccc(F)cc2)C1 (stereo not drawn)
2. CCC1(c2ccccc2)C(=O)N(COC)C(=O)N(COC)C1=O
3. CCC1(CC)C(=O)C=CNC1=O
4. COc1cccc2c1C(=O)c1c(O)c3c(c(O)c1C2=O)C[C@@](O)(C(=O)CO)CC3OC1CC(N2CCOC(OC)C2)C(O)C(C)O1 (stereo partly drawn)
5. COc1ccc2c3c1O[C@H]1[C@H](O)CC[C@H]4[C@@H](C2)N(C)CC[C@@]341
6. C[C@]12CCC(=O)C=C1CC[C@@H]1[C@H]3CC[C@](C)(O)[C@@]3(C)CC[C@@H]12
7. CC(C(=O)c1ccccc1)N(C)C (stereo not drawn)
8. Clc1ccccc1N1CCNCC1

Result:
inactive
inactive
inactive
0.0692 µM (active)
inactive
28.6 µM (active)
inactive
inactive

src = PubChem BioAssay (NCATS)
